Assay: A CellTox Green Cytotoxicity Assay to monitor cytotoxicity in HepG2 cells - 40 hour (AID 1224879); note: nearly all actives have a fitted effect of over 40% in size; note: potency is the fitted concentration of half-maximal effect
Conditions: CellTox Green fluorescence; series mostly up to 76.8 µM
Results filed as inconclusive are left out. Calls of active or inactive are those of the source. Calls come from the whole dose curve; as a rule, active = well fitted activation curve with a large enough effect in the repeat runs; inconclusive = weak or mixed curves; inactive = flat fitted curve, though single readings scatter.
Property: Potency

| Molecule | Property | Result |
| --- | --- | --- |
| CCN(CC)CCOC(=O)C(c1ccccc1)C1CCCCC1 (stereo not drawn) | Potency | 21.3 µM (active) |
| O=C1OC(CN2CCOCC2)CN1/N=C/c1ccc([N+](=O)[O-])o1 (stereo not drawn) | Potency | inactive |
| Cc1c(N)cccc1[N+](=O)[O-] | Potency | inactive |
| O=C(NCCO[N+](=O)[O-])c1cccnc1 | Potency | inactive |
| CC(C)C[C@H]1C(=O)N2CCC[C@H]2[C@]2(O)O[C@](NC(=O)[C@@H]3C=C4c5cccc6[nH]c(Br)c(c56)C[C@H]4N(C)C3)(C(C)C)C(=O)N12 | Potency | inactive |

If you can, please state the reported Potency value of CCN(CC)CCOC(=O)C(Cc1cccc2ccccc12)CC1CCCO1 (stereo not drawn) .
inactive

----------
Molecular target: Nuclear receptor subfamily 1 group I member 2 (Homo sapiens) (UniProt O75469)
Sequence (O75469 whole entry, looked up): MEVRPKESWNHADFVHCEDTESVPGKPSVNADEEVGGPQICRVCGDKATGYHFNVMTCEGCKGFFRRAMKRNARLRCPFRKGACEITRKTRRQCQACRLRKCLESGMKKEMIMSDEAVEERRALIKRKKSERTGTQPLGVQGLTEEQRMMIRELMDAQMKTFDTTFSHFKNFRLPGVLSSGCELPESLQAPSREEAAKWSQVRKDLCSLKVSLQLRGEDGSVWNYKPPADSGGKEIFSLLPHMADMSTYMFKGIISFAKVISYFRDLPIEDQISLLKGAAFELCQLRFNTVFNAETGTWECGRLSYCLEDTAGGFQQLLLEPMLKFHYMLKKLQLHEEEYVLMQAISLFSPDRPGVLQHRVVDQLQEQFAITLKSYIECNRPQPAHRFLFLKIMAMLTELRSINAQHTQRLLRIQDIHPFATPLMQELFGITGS
Assay: Human pregnane X receptor (PXR) small molecule agonists, qHTS assay (AID 1346982); note: nearly all actives have a fitted effect of over 35% in size
Conditions: PXR-Luc HepG2, CYP3A4 luciferase reporter, 24 h; series mostly up to 92.4 µM
Records with an inconclusive call do not appear. Activity calls are given as the source filed them. Calls come from the whole dose curve; as a rule, active = well fitted activation curve with a large enough effect in the repeat runs; inconclusive = weak or mixed curves; inactive = no such curve, though single readings can be large or run the other way.
Valid outcomes are listed here; reply with one: yes (1) = active, no (0) = inactive

// outcome(item) with item = `CCCCCCCN`
no (0)

// outcome(item) with item = `O=[N+]([O-])c1ccc2[nH]ncc2c1`
no (0)

// outcome(item) with item = `CCCCOC(=O)CCCCCCCC(=O)OCCCC`
no (0)

// outcome(item) with item = `CCC(C)(C)CC`
no (0)

// outcome(item) with item = `O=C(c1ccc(F)cc1)C1CCN(CCn2c(=S)[nH]c3ccccc3c2=O)CC1`
yes (1)

// outcome(item) with item = `Cn1c(=O)cc(Oc2ccc(F)cc2F)c2cnc(NCC(C)(C)O)nc21`
yes (1)

// outcome(item) with item = `CCCn1cnc2c1c(=O)n(CCCCC(C)=O)c(=O)n2C`
no (0)

// outcome(item) with item = `C#CCN(C)CCCOc1ccc(Cl)cc1Cl`
yes (1)

// outcome(item) with item = `CC1=CC[C@H](C(C)C)C=C1`
yes (1)

// outcome(item) with item = `CCCCCCCCO[C@@H]1O[C@H](CO)[C@@H](O)[C@H](O)[C@H]1O`
no (0)

// outcome(item) with item = `CN(C)c1ccc(CCO)cc1`
no (0)

// outcome(item) with item = `Nc1ccc([N+](=O)[O-])c(C(F)(F)F)c1`
no (0)

// outcome(item) with item = CCCCC(CC)COC(=O)COc1ccc(Cl)cc1Cl (stereo unspecified)
no (0)

// outcome(item) with item = `CCOC(=O)C(=O)CCc1ccccc1`
no (0)

// outcome(item) with item = CCCCC(CC)CN1C(=O)C2C3C=CC(C3)C2C1=O (stereo unspecified)
yes (1)

// outcome(item) with item = O=CC1CC=CCC1 (stereo unspecified)
no (0)

----------
Target: Aryl hydrocarbon receptor (Homo sapiens) (UniProt P35869)
Sequence (P35869 whole entry, looked up): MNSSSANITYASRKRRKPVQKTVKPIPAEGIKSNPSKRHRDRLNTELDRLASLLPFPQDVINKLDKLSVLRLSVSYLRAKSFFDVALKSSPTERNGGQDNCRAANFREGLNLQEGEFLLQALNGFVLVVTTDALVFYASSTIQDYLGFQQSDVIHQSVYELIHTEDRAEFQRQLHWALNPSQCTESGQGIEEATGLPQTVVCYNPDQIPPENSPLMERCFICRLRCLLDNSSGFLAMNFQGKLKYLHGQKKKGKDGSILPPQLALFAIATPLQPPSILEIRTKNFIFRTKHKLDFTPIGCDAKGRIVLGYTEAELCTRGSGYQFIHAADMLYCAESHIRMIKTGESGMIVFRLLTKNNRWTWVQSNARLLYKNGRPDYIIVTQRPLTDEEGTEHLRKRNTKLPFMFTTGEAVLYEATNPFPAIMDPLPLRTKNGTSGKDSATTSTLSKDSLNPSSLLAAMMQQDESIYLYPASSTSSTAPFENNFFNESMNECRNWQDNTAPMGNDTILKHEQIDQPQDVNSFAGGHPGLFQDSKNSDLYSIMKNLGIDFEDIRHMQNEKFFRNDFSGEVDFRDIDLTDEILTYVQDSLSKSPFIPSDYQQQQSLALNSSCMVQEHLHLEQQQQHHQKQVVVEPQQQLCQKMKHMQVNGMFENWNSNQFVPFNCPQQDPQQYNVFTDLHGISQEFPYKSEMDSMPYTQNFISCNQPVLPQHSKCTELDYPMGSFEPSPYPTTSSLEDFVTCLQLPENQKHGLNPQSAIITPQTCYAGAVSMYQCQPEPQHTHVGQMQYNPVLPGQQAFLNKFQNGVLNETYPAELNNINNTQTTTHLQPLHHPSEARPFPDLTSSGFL
Experiment: qHTS assay to identify small molecule that activate the aryl hydrocarbon receptor (AhR) signaling pathway (AID 743085);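 note: HG2L7.5c1 human HepG2 liver cells with stably integrated DRE-driven firefly reporter; nearly all actives have a fitted effect of over 15% in size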
Settings: HepG2 AhR-luc (HG2L7.5c1), luciferase, 24 h; series mostly up to 70.3 µM
Results filed as inconclusive are left out. Calls of active or inactive are those of the source. The call rests on the fitted dose curve; in most records, active means well fitted activation curve with a large enough effect in the repeat runs; inconclusive means weak or mixed curves; inactive means no such curve, though single readings can be large or run the other way.

| Smiles Entry | Target Or System | outcome |
| --- | --- | --- |
| NCCCN1CCOCC1 | Aryl hydrocarbon receptor (Homo sapiens) (UniProt P35869) | inactive |
| C[N+](C)(C)CCOC(=O)CCC(=O)OCC[N+](C)(C)C | Aryl hydrocarbon receptor (Homo sapiens) (UniProt P35869) | inactive |
| CC(=O)NO | Aryl hydrocarbon receptor (Homo sapiens) (UniProt P35869) | inactive |

----------
Assay: qHTS assay to identify small molecule agonists of the RXR signaling pathway - cell viability counter screen (AID 1159529); note: nearly all actives have a fitted effect of over 50% in size
Settings: RXR-alpha-bla HEK293T viability, CellTiter-Glo, 16 h; series mostly up to 76.8 µM
Results filed as inconclusive are left out. Active and inactive are the calls of the source. The call rests on the fitted dose curve; in most records, active means well fitted cell-killing curve with a large enough effect in the repeat runs; inconclusive means weak or mixed curves, or effect the other way; inactive means no such curve, though single readings can be large or run the other way.
Valid outcomes are listed here; reply with one: true = active, false = inactive

// outcome(item) with item = `CCN(CC)CCNC(=O)c1cc(Br)c(N)cc1OC`
false

// outcome(item) with item = `CCC(=O)O[C@]1(C(=O)CCl)[C@@H](C)C[C@H]2[C@@H]3CCC4=CC(=O)C=C[C@]4(C)[C@@]3(F)[C@@H](O)C[C@@]21C`
false

// outcome(item) with item = COc1cc2nc(N3CCN(C(=O)C4COc5ccccc5O4)CC3)nc(N)c2cc1OC (stereo not drawn)
false

// outcome(item) with item = `COc1ccc(C(=O)c2ccc(OC)cc2O)c(O)c1`
false

// outcome(item) with item = O=C1OC(=O)C2C3C=CC(C3)C12 (stereo not drawn)
false

// outcome(item) with item = `c1ccc(C(O[C@H]2CCCN(CCc3ccc4c(c3)OCO4)C2)c2ccccc2)cc1`
false

// outcome(item) with item = `CCCCCCCCCOS(=O)(=O)O`
false

// outcome(item) with item = CC(C)(C)OCC1CO1 (stereo not drawn)
false

// outcome(item) with item = `CCCn1cnc2c1c(=O)n(CCCCC(C)=O)c(=O)n2C`
false

// outcome(item) with item = `C[Si](C)(CCCN)O[Si](C)(C)CCCN`
false

// outcome(item) with item = CCCCC(CC)CN1C(=O)C2C3C=CC(C3)C2C1=O (stereo not drawn)
false

// outcome(item) with item = `CNCCCCOc1ccccc1Cc1ccccc1`
false

// outcome(item) with item = O=C(O)C(S)C(S)C(=O)O (stereo not drawn)
false

// outcome(item) with item = `CCCCCC[C@@H](O)C/C=C\CCCCCCCC(=O)OC`
false

// outcome(item) with item = CCC(Cl)CCC(Cl)C(Cl)CC(Cl)C(Cl)C(Cl)CCl (stereo not drawn)
false

// outcome(item) with item = CCCCC(CC)COC(=O)CCCCCCCCC(=O)OCC(CC)CCCC (stereo not drawn)
false

// outcome(item) with item = `CCCCc1ncc(/C=C(\Cc2cccs2)C(=O)O)n1Cc1ccc(C(=O)O)cc1`
false

// outcome(item) with item = COc1ccc(-c2nc3ccc(C4=NNC(=O)CC4C)cc3[nH]2)cc1 (stereo not drawn)
false

// outcome(item) with item = `O=C1C(O)=C(O)C(=O)C(O)=C1O`
false

// outcome(item) with item = `CCN(CC)CCNc1ccc(CNC=O)c2sc3ccc(OC)cc3c(=O)c12`
true

// outcome(item) with item = `CCCCc1nc2cccnc2n1Cc1ccc(-c2ccccc2-c2nnn[nH]2)cc1`
false

// outcome(item) with item = `O=C(O)CC(=O)C(=O)O`
false

// outcome(item) with item = `O=C(Cl)c1cc(C(=O)Cl)cc(C(=O)Cl)c1`
false

----------
Molecular target: Cytochrome P450 2D6 (Homo sapiens) (UniProt P10635)
Sequence (P10635 whole entry, looked up): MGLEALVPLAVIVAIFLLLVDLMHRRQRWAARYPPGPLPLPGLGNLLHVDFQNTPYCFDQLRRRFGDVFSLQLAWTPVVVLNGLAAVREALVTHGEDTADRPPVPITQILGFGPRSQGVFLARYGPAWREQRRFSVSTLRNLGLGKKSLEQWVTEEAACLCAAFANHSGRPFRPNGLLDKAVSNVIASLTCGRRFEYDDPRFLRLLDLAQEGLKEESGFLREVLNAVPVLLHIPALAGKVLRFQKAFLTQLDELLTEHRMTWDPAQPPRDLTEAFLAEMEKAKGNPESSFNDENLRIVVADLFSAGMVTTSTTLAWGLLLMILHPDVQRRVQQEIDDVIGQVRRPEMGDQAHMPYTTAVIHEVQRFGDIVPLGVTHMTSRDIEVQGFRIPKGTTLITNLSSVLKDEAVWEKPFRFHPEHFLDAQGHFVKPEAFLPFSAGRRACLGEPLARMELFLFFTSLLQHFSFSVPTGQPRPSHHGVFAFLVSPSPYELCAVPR
Test: Cytochrome P450 Family 2 Subfamily D Member 6 (CYP2D6) small molecule antagonists: luciferase reporter qHTS assay (AID 1671196); note: nearly all actives have a fitted effect of over 50% in size
Conditions: P450-Glo CYP2D6 enzyme assay, luciferin luminescence, 1 h; series mostly up to 115 µM
Results filed as inconclusive are left out. Calls of active or inactive are those of the source. Calls come from the whole dose curve; as a rule, active = well fitted inhibition curve with a large enough effect in the repeat runs; inconclusive = weak or mixed curves; inactive = no such curve, though single readings can be large or run the other way.
Valid outcomes are listed here; reply with one: YES for active, NO for inactive

// outcome(item) with item = `Cc1oc(-c2ccccc2)nc1CCOc1cccc2c1ccn2CCC(=O)O`
NO

// outcome(item) with item = `CNC(=O)CN(CCN(CCN(CC(=O)[O-])CC(=O)NC)CC(=O)[O-])CC(=O)[O-].O.[Gd+3]`
NO

// outcome(item) with item = `Nc1cccc([N+](=O)[O-])c1`
NO

// outcome(item) with item = `C[N+](C)(C)CCOC(=O)CCC(=O)OCC[N+](C)(C)C`
NO

// outcome(item) with item = `O=C(O)c1ccco1`
NO

// outcome(item) with item = `C#Cc1cccc(Nc2ncnc3cc(OCCOC)c(OCCOC)cc23)c1`
NO

// outcome(item) with item = `CCOC(=O)NCCOc1ccc(Oc2ccccc2)cc1`
YES

// outcome(item) with item = `CCOC(=O)C1=C[C@]2(CC)CCCN3CCc4c(n1c1ccccc41)[C@@H]32`
YES

// outcome(item) with item = CN1Cc2cc(C(=O)N3CCC(C4CCNCC4)CC3)ccc2NC(CC(=O)O)C1=O (stereo not drawn)
NO

// outcome(item) with item = `NC(=O)C(c1ccccc1)(c1ccccc1)[C@@H]1CCN(CCc2ccc3c(c2)CCO3)C1`
YES

// outcome(item) with item = `CCC(C)(C)CC`
NO

// outcome(item) with item = O=C1OC(=O)C2C3C=CC(C3)C12 (stereo not drawn)
NO

// outcome(item) with item = `C[Si](C)(CCCN)O[Si](C)(C)CCCN`
YES
